Target: Mitogen-activated protein kinase 12 (Homo sapiens)
Sequence (whole entry): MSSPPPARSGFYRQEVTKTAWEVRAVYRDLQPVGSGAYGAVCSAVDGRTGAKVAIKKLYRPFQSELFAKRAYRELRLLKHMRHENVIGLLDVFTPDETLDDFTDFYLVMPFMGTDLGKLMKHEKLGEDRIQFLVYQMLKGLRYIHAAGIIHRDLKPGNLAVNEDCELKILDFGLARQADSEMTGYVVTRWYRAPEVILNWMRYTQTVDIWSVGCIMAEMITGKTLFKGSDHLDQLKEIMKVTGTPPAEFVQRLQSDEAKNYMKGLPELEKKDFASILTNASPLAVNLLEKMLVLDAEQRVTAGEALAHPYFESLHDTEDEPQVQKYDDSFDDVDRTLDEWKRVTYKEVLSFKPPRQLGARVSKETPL
Details: at 0.1 µM
Description: GSK_PKIS: P38gamma mean inhibition at 0.1 uM [Nanosyn]
Form field: inhibition (one value per entry).
Reply with a number, then the unit it belongs to.

CCNC(=O)O[C@H]1CN[C@H](C#Cc2cc3ncnc(Nc4ccc(OCc5cccc(F)c5)c(Cl)c4)c3s2)C1 -0.39%
COc1ccc(-c2cc(-c3c[nH]nc3-c3ccccn3)ccn2)cc1 4.31%
Nc1ncc(-c2cccc(S(N)(=O)=O)c2)c2scc(-c3ccc(F)c(Cl)c3)c12 2.88%
COc1ccc(-c2cc3c(N)ncnc3o2)cc1 -1.44%

Name the reported inhibition value associated with the molecule "COc1ccc(-c2oc3ncnc(N)c3c2-c2ccc(NC(=O)Nc3cc(C(F)(F)F)ccc3F)cc2)cc1" -3.37%

Name the reported inhibition value associated with the molecule "CNC(=O)c1cc(-c2ccc(F)cc2)cc(-c2ccc(S(=O)(=O)N3CCCC3)cc2)c1N" 2.77%

* * *

biological target: Tyrosine-protein kinase Fer (Homo sapiens) (UniProt P16591); conditions: at 1 µM
Sequence (P16591 whole entry, looked up): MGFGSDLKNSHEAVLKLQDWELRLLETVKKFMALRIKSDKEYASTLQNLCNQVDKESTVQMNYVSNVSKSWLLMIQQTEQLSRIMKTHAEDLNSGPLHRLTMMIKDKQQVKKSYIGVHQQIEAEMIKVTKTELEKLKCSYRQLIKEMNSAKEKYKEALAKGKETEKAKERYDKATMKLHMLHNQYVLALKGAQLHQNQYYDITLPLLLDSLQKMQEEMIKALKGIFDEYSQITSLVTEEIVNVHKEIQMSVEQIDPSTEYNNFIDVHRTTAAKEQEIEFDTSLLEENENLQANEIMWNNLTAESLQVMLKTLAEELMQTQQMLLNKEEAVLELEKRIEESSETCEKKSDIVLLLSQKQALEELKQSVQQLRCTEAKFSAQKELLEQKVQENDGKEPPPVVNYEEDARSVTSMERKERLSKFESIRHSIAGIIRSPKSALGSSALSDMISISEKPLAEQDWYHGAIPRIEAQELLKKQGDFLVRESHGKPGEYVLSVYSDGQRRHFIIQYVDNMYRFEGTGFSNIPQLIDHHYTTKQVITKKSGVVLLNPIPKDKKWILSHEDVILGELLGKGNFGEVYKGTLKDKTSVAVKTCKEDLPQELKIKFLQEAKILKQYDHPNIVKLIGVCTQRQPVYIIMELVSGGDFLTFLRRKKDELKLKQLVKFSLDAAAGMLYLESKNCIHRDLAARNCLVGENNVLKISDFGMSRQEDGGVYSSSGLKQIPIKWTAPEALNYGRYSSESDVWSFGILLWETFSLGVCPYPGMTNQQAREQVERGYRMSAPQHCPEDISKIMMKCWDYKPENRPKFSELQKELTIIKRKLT
Description: GSK_PKIS: FER mean inhibition at 1 uM [Nanosyn]
recorded_metric: inhibition (%)
Field format: number, assumed %, no unit text.

compound	unit_spec	inhibition
CC1=C(C(=O)Nc2cc(Cl)c3[nH]ncc3c2)C(c2ccc(C(F)(F)F)cc2)CC(=O)N1 (stereo unspecified)	%	3.32
Fc1cccc(COc2ccc(Nc3ncnc4sc(-c5ccco5)cc34)cc2Cl)c1	%	3.22
CCn1c(-c2nonc2N)nc2ccccc21	%	8.61
CNC(=O)c1cncc(/C=C/c2ccccc2Cl)c1	%	3.78
COc1ccc(CNC(=O)c2ccc(-c3cc(-c4nnc(C)o4)ccc3C)cc2)cc1	%	4.77

Moving on to another compound below.
Name the reported inhibition value associated with the compound "COc1ccc(-c2cc(-c3c[nH]nc3-c3ccccn3)ccn2)cc1" 7.83

* * *

Form field: inhibition (one value per entry).
target: RAF proto-oncogene serine/threonine-protein kinase (Homo sapiens); details: at 1 µM;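 also: values are the mean percent inhibition of CRAF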
Field format: number, assumed %, no unit text.

compound	inhibition / %
CCn1cc(-c2ccnc3[nH]ccc23)c(-c2cccc(NC(=O)Nc3ccc(OCc4ccccc4)cc3)c2)n1	-2.76
Fc1cccc(COc2ccc(Nc3ncnc4sc(-c5ccco5)cc34)cc2Cl)c1	0.89
CC(=O)Nc1cccc(C#Cc2cncnc2Nc2ccc(OCc3cccc(F)c3)c(Cl)c2)c1	1.55
CCOc1ccc2c(-c3ccnc(Nc4cccc(C(F)(F)F)c4)n3)cnn2n1	-1.21
Fc1ccc(-c2nn3ccccc3c2-c2ccncc2)cc1	-9.31

Name the reported inhibition value associated with the compound "CCn1c(-c2nonc2N)nc2c(C#CC(C)(C)O)nc(OC[C@H](N)c3ccccc3)cc21" -1.64

Name the reported inhibition value associated with the compound "CNC(=O)c1cncc(/C=C/c2ccccc2Cl)c1" -3.13

Name the reported inhibition value associated with the compound "COC(=O)Nc1nc2ccc(Oc3ccc(NC(=O)Nc4cccc(Cl)c4)cc3)cc2[nH]1" 5.38

Name the reported inhibition value associated with the compound "CN(C)CCOc1ccc(-c2nc(-c3ccncc3)c(-c3ccc4c(c3)CC/C4=N\O)[nH]2)cc1" 69.9

Name the reported inhibition value associated with the compound "Clc1ccc(-c2nn3ncccc3c2-c2ccnc(Nc3ccccc3)n2)cc1" -3.34

Name the reported inhibition value associated with the compound "CNC(=O)c1cccc(C#Cc2cncnc2Nc2ccc(OCc3cccc(F)c3)c(Cl)c2)c1" -1.34

Name the reported inhibition value associated with the compound "Fc1ccc(-c2nn3ncccc3c2-c2ccnc(Nc3ccc4c(c3)OCCO4)n2)cc1" -0.33

Name the reported inhibition value associated with the compound "NC(=O)c1sc(-n2cnc3ccc(C(F)(F)F)cc32)cc1OCc1ccccc1Br" -3.37

Name the reported inhibition value associated with the compound "Nc1nc(-c2ccc(F)cc2)c(-c2ccc3ncccc3n2)s1" -6.29
